experiment: Intrinsic clearance in human liver microsomes at 1 uM in presence of NADPH incubated for 30 mins by LC/MS method; type: ADME; conditions: read-out: CLH
Label YES when microsomal CLint at 1 µM is strictly below 10 µL/min/mg; at or above that, label NO.

Query :: Say whether its microsomal CLint at 1 µM is strictly beneath 10 µL/min/mg. Entry: Cc1nc2cc(-n3ncc(C(=O)c4cc5ccc(CN6CCOCC6)cc5[nH]4)c3N)ccc2[nH]1
Result :: YES

Query :: Say whether its microsomal CLint at 1 µM is strictly beneath 10 µL/min/mg. Entry: Nc1c(C(=O)c2cc3ccccc3[nH]2)cnn1-c1cc(O)ccc1Cl
Result :: NO

Query :: Say whether its microsomal CLint at 1 µM is strictly beneath 10 µL/min/mg. Entry: Cc1ccc2cc(C(=O)c3cnn(-c4ccc5nc(C)[nH]c5c4)c3N)[nH]c2c1
Result :: NO

Query :: Say whether its microsomal CLint at 1 µM is strictly beneath 10 µL/min/mg. Entry: Nc1c(C(=O)c2cc3cc(CN4CCOCC4)ccc3[nH]2)cnn1-c1cc(O)ccc1Cl
Result :: NO

Query :: Say whether its microsomal CLint at 1 µM is strictly beneath 10 µL/min/mg. Entry: Nc1c(C(=O)c2cc3ccccc3[nH]2)cnn1-c1ccc2nc[nH]c2c1
Result :: YES
